Assay: Cytotoxicity against mouse J774.G8 cells assessed as reduction in cell viability incubated for 24 hrs by MTT assay
Type: cell-based
RESULT_TYPE: CC50 at 24 h
Your answer should be a number followed by the unit of measure.

Bench note: what CC50 at 24 h did CC(C)=CCC[C@@](C)(O)[C@@H]1CC=C(C)CC1 show?
452 µM

###

Tested on: Leishmania infantum
Assay: Antileishmanial activity against Leishmania infantum promastigotes
Format: functional, organism-based
RESULT_TYPE: pIC50
Just the number, please; pIC50 means minus log10 of the concentration in mol/L.

Bench note: what pIC50 did CC(C)=CCC[C@@](C)(O)[C@@H]1CC=C(C)CC1 show?
4.31
